- Experimental System: CDK8/Cyclin C (Homo sapiens)
- Sequence (P49336 whole entry): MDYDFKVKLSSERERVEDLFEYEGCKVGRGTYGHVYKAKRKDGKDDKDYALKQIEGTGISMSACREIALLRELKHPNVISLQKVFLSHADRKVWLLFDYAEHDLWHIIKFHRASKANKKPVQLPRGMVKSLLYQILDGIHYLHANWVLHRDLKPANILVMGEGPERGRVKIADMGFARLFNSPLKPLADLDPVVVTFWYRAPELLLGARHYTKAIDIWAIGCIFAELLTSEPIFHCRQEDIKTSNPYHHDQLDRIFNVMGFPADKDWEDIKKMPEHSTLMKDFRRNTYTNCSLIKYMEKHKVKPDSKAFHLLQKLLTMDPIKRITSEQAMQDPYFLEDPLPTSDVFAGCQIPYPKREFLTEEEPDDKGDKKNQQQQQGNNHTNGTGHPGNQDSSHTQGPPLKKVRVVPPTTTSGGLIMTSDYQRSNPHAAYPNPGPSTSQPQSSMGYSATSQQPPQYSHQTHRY
- Sequence (P24863 whole entry, further chain): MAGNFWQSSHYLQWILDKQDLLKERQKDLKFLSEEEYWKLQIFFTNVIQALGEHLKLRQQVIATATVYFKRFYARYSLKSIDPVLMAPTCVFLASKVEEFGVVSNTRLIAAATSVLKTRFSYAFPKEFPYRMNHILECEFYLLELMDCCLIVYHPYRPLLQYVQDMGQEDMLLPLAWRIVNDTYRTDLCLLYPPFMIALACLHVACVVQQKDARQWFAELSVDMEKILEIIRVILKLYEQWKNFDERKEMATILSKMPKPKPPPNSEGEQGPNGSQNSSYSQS
- Test Protocol: Inhibition of recombinant full length His tagged human CDK8/Cyclin C expressed in Baculovirus incubated for 60 mins in presence of ATP by ADP-Glo kinase assay

- Compound Structure: "Nc1ncc(-c2ccc(C(=O)N3CCNCC3)cc2)cc1C(=O)Nc1ccccc1"
  Units Text: "nM"
  IC50: 134
- Compound Structure: "O=C(Nc1ccccc1)c1cc(O)cc(-c2ccc(C(=O)N3CCNCC3)cc2)c1"
  Units Text: "nM"
  IC50: 530
- Compound Structure: "O=c1cc(-c2ccccc2)oc2cc(-c3ccc(C(F)(F)F)cc3)cc(O)c12"
  Units Text: "nM"
  IC50: 2110
- Compound Structure: "O=C(Nc1ccccc1)c1ccnc(-c2ccc(C(=O)N3CCNCC3)cc2)c1"
  Units Text: "nM"
  IC50: 80
- Compound Structure: "O=C(Nc1ccccc1)c1cncc(-c2ccc(C(=O)N3CCNCC3)cc2)c1"
  Units Text: "nM"
  IC50: 80

====

- Test Protocol: Half life in Sprague-Dawley rat at 5 mg/kg, iv measured for 3 to 1440 mins by HPLC analysis
- Type: ADME, organism-based
- Test Context: in vivo, time 3-1440 min
Parameter: half-life (h)

- Compound Structure: "CCc1ccccc1NC(=O)c1cncc(-c2ccc(C(=O)N3CCNCC3)cc2)c1"
  Experimental Value: 1.83

====

Examples of compounds with documented microsomal CLint follow.
- Test Protocol: Stability of compound in human liver microsome assessed as intrinsic clearance by HPLC analysis
- Format: ADME
- Test Context: liver microsomes, read-out: CLH

- Compound Structure: "O=C(Nc1ccccc1)c1ccnc(-c2ccc(C(=O)N3CCNCC3)cc2)c1"
  Units Text: "µL/min/mg"
  microsomal CLint: 10.9
- Compound Structure: "Cc1ccccc1NC(=O)c1cncc(-c2ccc(C(=O)N3CCNCC3)cc2)c1"
  Units Text: "µL/min/mg"
  microsomal CLint: 13
- Compound Structure: "COc1cccc(NC(=O)c2cncc(-c3ccc(C(=O)N4CCNCC4)cc3)c2)c1"
  Units Text: "µL/min/mg"
  microsomal CLint: 7
- Compound Structure: "O=C(Nc1ccccc1)c1cc(O)cc(-c2ccc(C(=O)N3CCNCC3)cc2)c1"
  Units Text: "µL/min/mg"
  microsomal CLint: 9.5
- Compound Structure: "O=C(c1ccc(-c2cc(O)c3c(=O)cc(-c4ccccc4)oc3c2)cc1)N1CCNCC1"
  Units Text: "µL/min/mg"
  microsomal CLint: 12.9
- Compound Structure: "O=c1cc(-c2ccccc2)oc2cc(-c3ccc(N4CCNCC4)cc3)cc(O)c12"
  Units Text: "µL/min/mg"
  microsomal CLint: 13.7
- Compound Structure: "O=c1cc(-c2ccccc2)oc2cc(-c3ccc(CN4CCNCC4)cc3)cc(O)c12"
  Units Text: "µL/min/mg"
  microsomal CLint: 15.9
- Compound Structure: "O=C(Nc1ccccc1)c1cncc(-c2ccc(C(=O)N3CCNCC3)cc2)c1"
  Units Text: "µL/min/mg"
  microsomal CLint: 7.3
- Compound Structure: "O=c1cc(-c2ccccc2)oc2cc(-c3ccccc3)cc(O)c12"
  Units Text: "µL/min/mg"
  microsomal CLint: 10.9
- Compound Structure: "CCc1ccccc1NC(=O)c1cncc(-c2ccc(C(=O)N3CCNCC3)cc2)c1"
  Units Text: "µL/min/mg"
  microsomal CLint: 5.5
- Compound Structure: "O=C(Nc1ccccc1)c1cc(-c2ccc(C(=O)N3CCNCC3)cc2)ccn1"
  Units Text: "µL/min/mg"
  microsomal CLint: 10.4
- Compound Structure: "COc1c(O)cc(O)c2c(=O)cc(-c3ccccc3)oc12"
  Units Text: "µL/min/mg"
  microsomal CLint: 11.3
